- Assay info: Plasma clearance in rat after intravenous administration of 2 mg/kg
- Format: ADME, organism-based
- Set-up: dose 2 mg/kg, route intravenous
- Run conditions: plasma
Experimental readout: clearance (mL/min/kg)

{"Mol": "O=C(/C=C/c1ccc(C(F)(F)F)nc1N1CCOCC1)Nc1ccc2cccnc2c1", "Experimental readout": "clearance", "Readout number": 15}

* * *

- Test system: Transient receptor potential cation channel subfamily V member 1 (Homo sapiens)
- Sequence (Q8NER1 whole entry): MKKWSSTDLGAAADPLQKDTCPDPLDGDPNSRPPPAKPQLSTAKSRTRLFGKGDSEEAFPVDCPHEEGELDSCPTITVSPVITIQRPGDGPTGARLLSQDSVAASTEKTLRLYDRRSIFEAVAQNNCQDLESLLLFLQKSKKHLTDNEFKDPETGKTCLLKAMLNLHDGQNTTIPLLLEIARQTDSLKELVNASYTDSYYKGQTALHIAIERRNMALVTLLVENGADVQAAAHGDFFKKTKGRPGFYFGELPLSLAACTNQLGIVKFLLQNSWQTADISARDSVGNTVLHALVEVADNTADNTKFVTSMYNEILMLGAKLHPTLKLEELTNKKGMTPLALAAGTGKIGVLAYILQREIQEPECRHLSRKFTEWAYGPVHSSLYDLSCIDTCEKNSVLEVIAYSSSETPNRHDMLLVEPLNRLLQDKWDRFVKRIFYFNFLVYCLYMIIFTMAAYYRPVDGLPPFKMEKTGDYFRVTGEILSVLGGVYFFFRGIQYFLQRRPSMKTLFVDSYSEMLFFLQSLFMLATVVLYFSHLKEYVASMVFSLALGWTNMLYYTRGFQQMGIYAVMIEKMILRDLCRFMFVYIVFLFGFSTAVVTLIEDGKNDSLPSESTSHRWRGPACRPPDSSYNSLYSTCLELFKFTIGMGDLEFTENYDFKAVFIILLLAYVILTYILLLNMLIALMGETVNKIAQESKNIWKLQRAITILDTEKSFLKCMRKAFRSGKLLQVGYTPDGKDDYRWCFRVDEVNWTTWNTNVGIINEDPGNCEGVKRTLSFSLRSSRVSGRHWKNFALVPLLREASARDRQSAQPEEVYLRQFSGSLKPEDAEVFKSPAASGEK
- Assay info: Inhibition of capsaicin-induced calcium uptake by transient receptor potential vanilloid type 1 expressed in CHO cells
- Type: functional, cell-based
API: label(entry) gives 1.0 if the entry's IC50 is strictly smaller than 0.02 µM; on equality or larger values it gives 0.0.

{"Compound": "CC(C)(C)c1ccc(/C=C/C(=O)Nc2ccc3c(c2)OCCO3)cc1 (stereo in doubt; 1)", "Cat": 1.0}
{"Compound": "CC(C)(C)c1ccc(/C=C/C(=O)Nc2ccc3c(c2)NCCC3)cc1", "Cat": 0.0}
{"Compound": "CC(C)(C)c1ccc(/C(=C/C(=O)Nc2ccc3c(c2)OCCO3)CCC(=O)O)cc1", "Cat": 0.0}
{"Compound": "CC(C)(C)c1ccc(/C=C/C(=O)Nc2ccc3c(c2)NC(=O)CO3)cc1", "Cat": 1.0}
{"Compound": "CC(C)C/C(=C\\C(=O)Nc1ccc2c(c1)OCCO2)c1ccc(C(C)(C)C)cc1", "Cat": 1.0}
{"Compound": "Cc1nc(C(F)(F)F)ccc1/C=C/C(=O)Nc1ccc2c(c1)OCCO2", "Cat": 0.0}
{"Compound": "CC(C)(C)c1ccc(/C=C(/C(=O)Nc2ccc3c(c2)OCCO3)c2ccccc2)cc1", "Cat": 0.0}
{"Compound": "CC(C)(C)c1ccc(/C(=C/C(=O)Nc2ccc3c(c2)OCCO3)c2cccnc2)cc1", "Cat": 0.0}
